Give Activity towards hGHQ40N (RFU/sec/µg), dansyl-cadaverine incorporation for every item shown.
biological target: hGHQ40N, P01241
Sequence (P01241 27-217 Q66N): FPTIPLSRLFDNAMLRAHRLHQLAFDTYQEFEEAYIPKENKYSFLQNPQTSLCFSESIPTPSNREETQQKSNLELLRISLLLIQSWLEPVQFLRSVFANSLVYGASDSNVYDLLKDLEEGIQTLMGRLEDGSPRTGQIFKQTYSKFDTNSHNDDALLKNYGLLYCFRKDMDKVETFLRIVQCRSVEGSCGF
Answers are plain numbers, in RFU/sec/µg.

In the examples that follow, each entry is paired with its recorded Activity towards hGHQ40N (RFU/sec/µg), dansyl-cadaverine incorporation.
PROTEIN: AlaPro-mTGase from S. ladakanum (protein) APDSDERVTPPAEPLDRMPDPYRPSYGRAETIVNNYIRKWQQVYSHRDGRKQQMTEEQREWLSYGCVGVTWVNSGQYPTNRLAFAFFDEDKYKNELKNGRPRSGETRAEFEGRVAKDSFDEAKGFQRARDVASVMNKALENAHDEGAYLDNLKKELANGNDALRNEDARSPFYSALRNTPSFKDRNGGNHDPSKMKAVIYSKHFWSGQDRSGSSDKRKYGDPEAFRPDRGTGLVDMSRDRNIPRSPTSPGESFVNFDYGWFGAQTEADADKTVWTHGNHYHAPNGSLGAMHVYESKFRNWSDGYSDFDRGAYVVTFVPKSWNTAPDKVKQGWP
DATA VALUE: 6.91

PROTEIN: mTGase from S. mobaraensis (protein) DSDDRVTPPAEPLDRMPDPYRPSYGRAETVVNNYIRKWQQVYSHRDGRKQQMTEEQREWLSYGCVGVTWVNSGQYPTNRLAFASFDEDRFKNELKNGRPRSGETRAEFEGRVAKESFDEEKGFQRAREVASVMNRALENAHDESAYLDNLKKELANGNDALRNEDARSPFYSALRNTPSFKERNGGNHDPSRMKAVIYSKHFWSGQDRSSSADKRKYGDPDAFRPAPGTGLVDMSRDRNIPRSPTSPGEGFVNFDYGWFGAQTEADADKTVWTHGNHYHAPNGSLGAMHVYESKFRNWSEGYSDFDRGAYVITFIPKSWNTAPDKVKQGWP
DATA VALUE: 3.35

PROTEIN: Met-mTGase from S. mobaraensis (protein) MDSDDRVTPPAEPLDRMPDPYRPSYGRAETVVNNYIRKWQQVYSHRDGRKQQMTEEQREWLSYGCVGVTWVNSGQYPTNRLAFASFDEDRFKNELKNGRPRSGETRAEFEGRVAKESFDEEKGFQRAREVASVMNRALENAHDESAYLDNLKKELANGNDALRNEDARSPFYSALRNTPSFKERNGGNHDPSRMKAVIYSKHFWSGQDRSSSADKRKYGDPDAFRPAPGTGLVDMSRDRNIPRSPTSPGEGFVNFDYGWFGAQTEADADKTVWTHGNHYHAPNGSLGAMHVYESKFRNWSEGYSDFDRGAYVITFIPKSWNTAPDKVKQGWP
DATA VALUE: 5.44

Consider the protein GlyPro-mTGase from S. ladakanum (protein) GPDSDERVTPPAEPLDRMPDPYRPSYGRAETIVNNYIRKWQQVYSHRDGRKQQMTEEQREWLSYGCVGVTWVNSGQYPTNRLAFAFFDEDKYKNELKNGRPRSGETRAEFEGRVAKDSFDEAKGFQRARDVASVMNKALENAHDEGAYLDNLKKELANGNDALRNEDARSPFYSALRNTPSFKDRNGGNHDPSKMKAVIYSKHFWSGQDRSGSSDKRKYGDPEAFRPDRGTGLVDMSRDRNIPRSPTSPGESFVNFDYGWFGAQTEADADKTVWTHGNHYHAPNGSLGAMHVYESKFRNWSDGYSDFDRGAYVVTFVPKSWNTAPDKVKQGWP and give its measured Activity towards hGHQ40N (RFU/sec/µg), dansyl-cadaverine incorporation.
4.25
